Data origin: the supplement of paper PMC3621838

tested on: HEK293 NF-kB-luciferase reporter cells; assay: NF-kB luciferase reporter activity, robust Z-score vs plate median (robust Z-score (log luminescence)); higher = stronger NF-kB reporter activation; settings: TNF 40 ng/mL; TNF treatment time 8.5 h; transfection time 72 h
For each of the sequences below, state its NF-kB luciferase reporter activity.
Answers are plain numbers.

# map each sequence to its NF-kB luciferase reporter activity
1. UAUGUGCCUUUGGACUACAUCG
2. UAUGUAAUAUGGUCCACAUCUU
3. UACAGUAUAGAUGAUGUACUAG

1: -1.23; 2: -1.34; 3: 0.659

# map each sequence to its NF-kB luciferase reporter activity
1. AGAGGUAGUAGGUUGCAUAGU
2. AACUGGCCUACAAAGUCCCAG
3. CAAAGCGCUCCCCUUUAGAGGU
4. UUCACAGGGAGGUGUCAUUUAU
5. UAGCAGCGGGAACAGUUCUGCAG
6. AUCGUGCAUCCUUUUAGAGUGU
7. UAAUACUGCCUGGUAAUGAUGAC
8. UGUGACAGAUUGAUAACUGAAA

-1.24
-1.18
0.254
0.0761
0.834
0.331
1.37
-2.02

# map each sequence to its NF-kB luciferase reporter activity
1. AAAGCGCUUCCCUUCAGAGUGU
2. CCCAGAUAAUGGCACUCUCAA
3. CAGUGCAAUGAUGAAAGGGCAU
4. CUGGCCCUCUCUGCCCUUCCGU
5. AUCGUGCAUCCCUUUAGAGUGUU
6. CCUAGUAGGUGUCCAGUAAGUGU
7. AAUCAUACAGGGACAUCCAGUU

[0.467, -0.306, 1.24, -0.112, 0.437, 0.432, 0.117]

# map each sequence to its NF-kB luciferase reporter activity
1. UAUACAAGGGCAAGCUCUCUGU
2. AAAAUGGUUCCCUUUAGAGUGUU
3. AUUACAUGGCCAAUCUC
4. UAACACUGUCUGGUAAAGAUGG
5. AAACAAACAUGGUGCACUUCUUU

1: -1.11; 2: -2.14; 3: 0.754; 4: 1.42; 5: -0.235

Given the entry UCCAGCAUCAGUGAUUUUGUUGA , report its measured NF-kB luciferase reporter activity.
0.858

----------
For each of the sequences below, state its NF-kB luciferase reporter activity.
system: HEK293 NF-kB-luciferase reporter cells; test: NF-kB luciferase reporter activity, robust Z-score vs plate median (robust Z-score (log luminescence)); higher = stronger NF-kB reporter activation; conditions: TNF 40 ng/mL; TNF treatment time 8.5 h; transfection time 72 h
Give bare numbers.

Answered examples (3):
sequence_chain=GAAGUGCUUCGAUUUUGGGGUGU result=-0.363
sequence_chain=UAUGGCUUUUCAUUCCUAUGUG result=-0.369
sequence_chain=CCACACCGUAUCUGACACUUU result=0.0155

# map each sequence to its NF-kB luciferase reporter activity
1. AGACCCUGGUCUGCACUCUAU
2. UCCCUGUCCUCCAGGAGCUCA
3. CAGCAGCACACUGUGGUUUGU
4. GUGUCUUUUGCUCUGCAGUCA
5. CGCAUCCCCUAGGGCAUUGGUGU

[0.7, 0.69, 0.0663, 0.168, -0.479]

# map each sequence to its NF-kB luciferase reporter activity
1. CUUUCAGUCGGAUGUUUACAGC
2. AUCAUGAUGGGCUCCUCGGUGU
3. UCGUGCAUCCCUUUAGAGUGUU

1: 1; 2: -0.71; 3: 1.07

# map each sequence to its NF-kB luciferase reporter activity
1. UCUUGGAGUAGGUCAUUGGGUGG
2. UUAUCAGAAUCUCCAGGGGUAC

[0.913, -0.796]

----------
tested on: HEK293 NF-kB-luciferase reporter cells; assay: NF-kB luciferase reporter activity, robust Z-score vs plate median (robust Z-score (log luminescence)); higher = stronger NF-kB reporter activation; settings: TNF 0 ng/mL; TNF treatment time 8.5 h; transfection time 72 h
RESULT TYPE: NF-kB luciferase reporter activity

Answered examples (6):
sequence_chain=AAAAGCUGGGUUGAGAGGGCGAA result=-0.418
sequence_chain=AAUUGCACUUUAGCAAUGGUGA result=0.232
sequence_chain=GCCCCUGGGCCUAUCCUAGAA result=1.22
sequence_chain=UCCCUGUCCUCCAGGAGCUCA result=0.322
sequence_chain=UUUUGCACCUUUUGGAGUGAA result=1.1
sequence_chain=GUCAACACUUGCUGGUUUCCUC result=-0.0513

# map each sequence to its NF-kB luciferase reporter activity
1. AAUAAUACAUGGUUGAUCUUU
2. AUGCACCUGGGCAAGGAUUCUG
3. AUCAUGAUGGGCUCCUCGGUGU

1. -0.785
2. -0.197
3. -0.346

----------
system: HEK293 NF-kB-luciferase reporter cells; experiment: NF-kB luciferase reporter activity, robust Z-score vs plate median (robust Z-score (log luminescence)); higher = stronger NF-kB reporter activation; settings: TNF 40 ng/mL; TNF treatment time 8.5 h; transfection time 72 h
For each of the sequences below, state its NF-kB luciferase reporter activity.

Answered examples (4):
sequence_chain=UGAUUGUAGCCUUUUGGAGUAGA result_type="NF-kB luciferase reporter activity" result=-0.927
sequence_chain=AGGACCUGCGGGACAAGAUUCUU result_type="NF-kB luciferase reporter activity" result=1.11
sequence_chain=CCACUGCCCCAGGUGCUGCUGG result_type="NF-kB luciferase reporter activity" result=-0.0587
sequence_chain=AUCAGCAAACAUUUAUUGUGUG result_type="NF-kB luciferase reporter activity" result=-0.5

# map each sequence to its NF-kB luciferase reporter activity
1. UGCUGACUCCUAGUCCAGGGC
2. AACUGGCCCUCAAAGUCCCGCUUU
3. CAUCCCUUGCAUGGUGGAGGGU

[-3.27, -0.934, 0.53]

----------
system: HEK293 NF-kB-luciferase reporter cells; experiment: NF-kB luciferase reporter activity, robust Z-score vs plate median (robust Z-score (log luminescence)); higher = stronger NF-kB reporter activation; conditions: TNF 0 ng/mL; TNF treatment time 8.5 h; transfection time 72 h
Criterion: NF-kB luciferase reporter activity meeting or surpassing 0.2. Met: met. Not met: not met.

sequence_chain=UGGUAGACUAUGGAACGUA target_desc="HEK293 NF-kB-luciferase reporter cells" assigned_class=met
sequence_chain=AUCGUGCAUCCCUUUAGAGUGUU target_desc="HEK293 NF-kB-luciferase reporter cells" assigned_class=met
sequence_chain=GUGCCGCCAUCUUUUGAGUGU target_desc="HEK293 NF-kB-luciferase reporter cells" assigned_class=met

Is NF-kB luciferase reporter activity at least 0.2? Consider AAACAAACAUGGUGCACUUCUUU
not met

Is NF-kB luciferase reporter activity at least 0.2? Consider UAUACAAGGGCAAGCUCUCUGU
not met

----------
tested on: HEK293 NF-kB-luciferase reporter cells; assay: NF-kB luciferase reporter activity, robust Z-score vs plate median (robust Z-score (log luminescence)); higher = stronger NF-kB reporter activation; details: TNF 40 ng/mL; TNF treatment time 8.5 h; transfection time 72 h
Categories are defined by ranges of NF-kB luciferase reporter activity, namely lower band: < -0.4; central band: ≥ -0.4 and < 0.6; upper band: ≥ 0.6

Consider the worked cases shown below.
sequence_chain=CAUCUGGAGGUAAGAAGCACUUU target_desc="HEK293 NF-kB-luciferase reporter cells" assigned_class="lower band"
sequence_chain=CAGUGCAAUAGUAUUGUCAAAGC target_desc="HEK293 NF-kB-luciferase reporter cells" assigned_class="upper band"
sequence_chain=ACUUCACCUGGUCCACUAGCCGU target_desc="HEK293 NF-kB-luciferase reporter cells" assigned_class="upper band"
sequence_chain=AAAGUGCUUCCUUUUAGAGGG target_desc="HEK293 NF-kB-luciferase reporter cells" assigned_class="lower band"
sequence_chain=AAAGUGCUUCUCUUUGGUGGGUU target_desc="HEK293 NF-kB-luciferase reporter cells" assigned_class="central band"
sequence_chain=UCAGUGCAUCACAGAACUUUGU target_desc="HEK293 NF-kB-luciferase reporter cells" assigned_class="central band"

Looking at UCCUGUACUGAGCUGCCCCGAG , which class would you pick?
upper band

Looking at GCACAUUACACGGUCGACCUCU , which class would you pick?
upper band

Looking at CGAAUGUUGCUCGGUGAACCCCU , which class would you pick?
lower band

Looking at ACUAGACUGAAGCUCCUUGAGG , which class would you pick?
upper band

Looking at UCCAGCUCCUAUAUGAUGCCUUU , which class would you pick?
central band

Looking at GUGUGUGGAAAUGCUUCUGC , which class would you pick?
lower band

Looking at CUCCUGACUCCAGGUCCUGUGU , which class would you pick?
upper band

Looking at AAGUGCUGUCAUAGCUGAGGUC , which class would you pick?
central band

Looking at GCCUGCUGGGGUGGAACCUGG , which class would you pick?
central band

Looking at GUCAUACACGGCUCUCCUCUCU , which class would you pick?
lower band

Looking at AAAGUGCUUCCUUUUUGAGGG , which class would you pick?
lower band

Looking at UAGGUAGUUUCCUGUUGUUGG , which class would you pick?
lower band

Looking at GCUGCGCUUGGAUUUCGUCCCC , which class would you pick?
central band

Looking at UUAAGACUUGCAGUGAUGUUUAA , which class would you pick?
central band

Looking at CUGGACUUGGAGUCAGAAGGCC , which class would you pick?
central band

Looking at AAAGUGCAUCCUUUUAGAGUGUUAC , which class would you pick?
central band

Looking at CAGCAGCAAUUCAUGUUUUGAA , which class would you pick?
upper band

Looking at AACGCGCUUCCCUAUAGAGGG , which class would you pick?
upper band
